From: PubChem BioAssay (NCI)

Exercise: state measured growth for each of the compounds provided.
# Tested on: HOP-92 NSCLC
# testProtocol: NCI-60 one-dose screen, 48 h (100 = growth as untreated, 0 = no growth, -100 = all killed)
# cond: 10 µM unless noted
About 83,000 compounds went through this panel and 20% of them were active in at least one assay; those are over-represented in the sample as a whole. Activity calls are given as the source filed them. The calls were made as follows: active = growth percent below 10; inactive = the rest.

Solved entries:
> print(dat)
                                   compound  attributemeasured      readoutvalue
1                 Cc1cccnc1NC(=S)Nc1ncccc1C             growth   109% (inactive)
2  CN1C(=O)N(C)C2Nn3c(s/c(=C\c4ccc(C(F)(F)F)cc4)c3=O)=NC21 (stereo not given)             growth   110% (inactive)
3  CN1CCN(C(=O)OCc2ccc3c(Cl)cc(Cl)c(O)c3n2)CC1             growth  71.1% (inactive)
4  CCO/C=N/C1=C(C#N)C(c2ccc(OC)cc2)c2sc3c(F)cccc3c2O1 (stereo not given)             growth  62.6% (inactive)
5  CN(C)Cc1ccc(NC(=O)c2cncc(C#Cc3cnc(N)c4ncccc34)c2)cc1F             growth  80.7% (inactive)
6                 CC(C)n1cnc2c(=S)nc[nH]c21             growth   103% (inactive)
7  COc1cc(-c2nc3cc(Cl)c(Cl)cc3[nH]2)ccc1OCC(=O)N=Nc1c(O)[nH]c2ccc([N+](=O)[O-])cc12             growth  84.2% (inactive)
8  CC(=O)N1N=C(c2ccc(Nc3nc(Nc4ccc(Cl)cc4)nc(Nc4ccc(Cl)cc4)n3)cc2)CC1c1ccco1 (stereo not given)             growth  99.9% (inactive)

// each listed compound needs a value for growth
1. CCc1n(Cc2ccc3ccccc3c2)cc[n+]1Cc1ccc2ccccc2c1
2. Oc1c(Cl)cc(Cl)c2ccc(Cn3cc(-c4cc(F)cc(F)c4)nn3)nc12

**Result**
1: -31.4% (active); 2: 29% (inactive)
